Provenance of the data: patent US9232799B2

# Tested on: Fusarium graminearum
# TEST DESCRIPTION: microbe, parasite or virus in culture
# Assay type: cell-based
# REPORTED CONDITIONS: 50 μM
READOUT NAME: % Inhibition of fungal growth at 50 μM (%)
Only the number, expressed in %, is required.

Below: 4 molecules and their reported % Inhibition of fungal growth at 50 μM.
# MOLECULE, READOUT NAME, DATA VALUE
data = [
    ("CC(CNC(=O)c1c(C(F)F)nn(C)c1Cl)c1c(F)cccc1F (stereo not drawn) [Example 29]", "% Inhibition of fungal growth at 50 μM", 82),
    ("Cn1nc(C(F)F)c(C(=O)NC[Si](C)(C)c2ccccc2)c1Cl [Example 227]", "% Inhibition of fungal growth at 50 μM", 71),
    ("CC(CNC(=O)c1c(C(F)F)nn(C)c1Cl)c1cccc(Cl)c1 (stereo not drawn) [Example 52]", "% Inhibition of fungal growth at 50 μM", 83),
    ("Cn1nc(C(F)F)c(C(=O)N(C[Si](C)(C)c2ccsc2)C2CC2)c1F [Example 248]", "% Inhibition of fungal growth at 50 μM", 100),
]

Req: Entry under review: CCC(NC(=O)c1c(C(F)F)nn(C)c1Cl)C(OC)c1ccc(Cl)cc1Cl (mixture of isomers) [Example 76] . Reported % Inhibition of fungal growth at 50 μM?
Resp: 100

----------
# TEST DESCRIPTION: logP by HPLC on reversed-phase column (C 18), EEC Directive 79/831 Annex V.A8
# Assay type: physicochemical
We use 3 as the dividing line for logP: on or above the line is met, below is not met.

Field: example entries. Status: answers known.
# COMPOUND, QUALITATIVE LABEL
rows = [
    ("CCC(CNC(=O)c1c(C(F)F)nn(C)c1F)c1ncc(C(F)(F)F)cc1Cl (centres unmarked)", "met"),
    ("CCC(NC(=O)c1c(C(F)F)nn(C)c1F)C(OC)c1ccc(Cl)cc1Cl (centres unmarked)", "met"),
    ("Cn1nc(C(F)F)c(C(=O)N(CC(F)(F)c2ccccc2Cl)C2CC2)c1F", "met"),
    ("CC(CN(C)C(=O)c1c(C(F)F)nn(C)c1Cl)c1ccncc1 (centres unmarked)", "not met"),
    ("CC(CNC(=O)c1c(C(F)F)nn(C)c1Cl)c1ccc(Cl)cc1Cl (centres unmarked)", "met"),
]

Req: For this compound, is measured logP 3 or higher? Cn1nc(C(F)F)c(C(=O)NCCc2ccccc2Cl)c1F
Resp: not met

Req: I'd appreciate it if you could say whether CC(CN(C(=S)c1c(C(F)F)nn(C)c1F)C1CC1)c1ccccc1 (centres unmarked) has logP at least equal to 3.
Resp: met

Req: Is the recorded value of logP equal to or greater than 3 for this compound? Cn1nc(C(F)F)c(C(=O)N(CCc2ccccn2)C2CCCCC2)c1Cl
Resp: not met

Req: Identify whether the reported logP of the following compound is 3 or greater: CC(CNC(=O)c1c(C(F)F)nn(C)c1Cl)c1cc(Cl)ccc1Cl (centres unmarked)
Resp: met

Req: State whether the measured logP reaches 3, counting equality as reaching it, for Cn1nc(C(F)F)c(C(=O)N(C2CC2)C2CCCC2c2ccc(Cl)cc2Cl)c1F (centres unmarked)
Resp: met

Req: logP >= 3 for CC(C)N(CCc1ccccc1)C(=O)c1c(C(F)F)nn(C)c1F ?
Resp: met
